biological target: Mre11 R160E;Rad50 full-length (Pyrococcus furiosus;Pyrococcus furiosus, UniProt Q8U1N9;P58301 1-426;1-882, R160E|); test: fluorescence polarization
Sequence (P58301 whole entry, stated change not applied, one chain of several): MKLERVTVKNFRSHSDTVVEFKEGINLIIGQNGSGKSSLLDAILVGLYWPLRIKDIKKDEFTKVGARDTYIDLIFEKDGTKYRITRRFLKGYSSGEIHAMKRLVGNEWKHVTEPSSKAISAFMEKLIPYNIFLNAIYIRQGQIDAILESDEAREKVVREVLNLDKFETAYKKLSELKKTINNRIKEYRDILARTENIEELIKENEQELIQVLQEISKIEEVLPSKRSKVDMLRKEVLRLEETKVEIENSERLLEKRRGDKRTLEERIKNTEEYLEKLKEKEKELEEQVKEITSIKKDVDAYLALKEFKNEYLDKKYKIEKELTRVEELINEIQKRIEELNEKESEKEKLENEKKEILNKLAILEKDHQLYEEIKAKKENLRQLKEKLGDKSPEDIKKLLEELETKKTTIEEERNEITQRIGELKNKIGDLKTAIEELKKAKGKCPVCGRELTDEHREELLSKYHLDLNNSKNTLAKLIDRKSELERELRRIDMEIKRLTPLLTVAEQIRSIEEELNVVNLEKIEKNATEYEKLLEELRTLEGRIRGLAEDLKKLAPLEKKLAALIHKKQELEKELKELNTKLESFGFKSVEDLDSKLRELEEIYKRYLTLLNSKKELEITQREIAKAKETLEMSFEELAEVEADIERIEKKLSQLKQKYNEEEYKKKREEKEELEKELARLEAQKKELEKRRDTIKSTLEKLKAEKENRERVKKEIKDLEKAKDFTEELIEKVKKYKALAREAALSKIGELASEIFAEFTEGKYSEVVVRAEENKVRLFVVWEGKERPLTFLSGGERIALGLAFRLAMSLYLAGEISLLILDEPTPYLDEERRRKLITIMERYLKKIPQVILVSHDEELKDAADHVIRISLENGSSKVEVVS
Readout Kind: Kd (nM)
# output: bare number, implied unit nM

### Prompt Which Kd value is on record for 40-mer dsDNA (dsDNA) DNA 1: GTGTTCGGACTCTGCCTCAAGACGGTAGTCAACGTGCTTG DNA 2: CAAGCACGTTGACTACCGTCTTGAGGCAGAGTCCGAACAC ?
### Response 960
